Origin of the recorded values: patent US11981658B2

biological target: EGFR wildtype (WT) (Homo sapiens, UniProt P00533); experiment: Biochemical EGFR kinase inhibition assay (Lance Ultra TR-FRET), wildtype; details: IC50 WT (nM), 100 μM ATP
Sequence (P00533 25-1210): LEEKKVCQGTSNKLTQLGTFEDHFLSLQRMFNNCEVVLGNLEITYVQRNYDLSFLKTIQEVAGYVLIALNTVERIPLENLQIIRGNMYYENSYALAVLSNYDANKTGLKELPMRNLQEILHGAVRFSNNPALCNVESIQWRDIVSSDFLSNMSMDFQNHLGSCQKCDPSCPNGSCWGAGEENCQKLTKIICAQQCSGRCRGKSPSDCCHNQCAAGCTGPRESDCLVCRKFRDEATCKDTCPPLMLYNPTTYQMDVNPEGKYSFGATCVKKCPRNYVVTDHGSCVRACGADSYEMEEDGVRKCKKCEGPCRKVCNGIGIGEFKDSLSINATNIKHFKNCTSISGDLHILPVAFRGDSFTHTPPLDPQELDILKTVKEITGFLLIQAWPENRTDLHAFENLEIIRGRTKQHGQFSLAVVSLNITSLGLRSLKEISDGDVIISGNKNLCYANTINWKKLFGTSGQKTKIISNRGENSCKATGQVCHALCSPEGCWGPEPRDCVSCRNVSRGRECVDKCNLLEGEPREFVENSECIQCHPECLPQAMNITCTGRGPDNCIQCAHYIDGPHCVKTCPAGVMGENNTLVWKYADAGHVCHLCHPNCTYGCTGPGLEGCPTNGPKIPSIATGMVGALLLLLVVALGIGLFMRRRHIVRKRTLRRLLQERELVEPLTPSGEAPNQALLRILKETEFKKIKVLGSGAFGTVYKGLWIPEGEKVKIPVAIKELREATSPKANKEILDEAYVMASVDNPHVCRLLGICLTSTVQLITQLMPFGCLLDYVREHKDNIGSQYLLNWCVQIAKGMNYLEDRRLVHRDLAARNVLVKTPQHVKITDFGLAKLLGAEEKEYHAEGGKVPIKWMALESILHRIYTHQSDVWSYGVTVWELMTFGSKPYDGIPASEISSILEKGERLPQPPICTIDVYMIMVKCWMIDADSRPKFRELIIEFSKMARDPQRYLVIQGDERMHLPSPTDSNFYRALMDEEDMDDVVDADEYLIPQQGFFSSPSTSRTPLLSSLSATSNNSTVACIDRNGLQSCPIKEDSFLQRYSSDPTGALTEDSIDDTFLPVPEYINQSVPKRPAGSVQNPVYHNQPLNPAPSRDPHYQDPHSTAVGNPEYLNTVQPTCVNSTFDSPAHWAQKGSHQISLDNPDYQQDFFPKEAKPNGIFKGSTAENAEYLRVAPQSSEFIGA
Entries annotated with measured IC50

Cn1cc(C#Cc2cnc(Nc3ccnc(-c4cnn(S(=O)(=O)C5CC5)c4)n3)cc2N2CCC(CCO)CC2)c(C(F)(F)F)n1 ... > 10000 nM

Note: attention shifts to another entry.
Task item: What measured IC50 is associated with O=S(=O)(C1CC1)n1cc(-c2nccc(Nc3cc(N4CCC(CO)CC4)c(C#Cc4cnn(CCF)c4)cn3)n2)cn1 on EGFR wildtype (WT) (Homo sapiens, UniProt P00533)?
Reply: > 10000 nM
